Target: UniProtKB P40261
Assay: Inhibition of NNMT in human 786-O cell lysate using d4-nicotinamide as substrate pretreated for 1 hr at 3 mins post 20 uM SAM addition followed by substrate addition measured after 15 to 30 mins by LC-MS analysis
READOUT TYPE: IC50 (µM)
Your answer should be a plain number; it is taken to be in µM.

Problem: Would you mind telling me what IC50 value was observed for `CC(C)CCN(C(=O)CCl)c1cc(C(=O)NCc2cccc([N+](=O)[O-])c2)cc(C(F)(F)F)c1` ?
Result: 6.2

====

Molecular target: Nicotinamide N-methyltransferase (Homo sapiens)
Sequence (P40261 whole entry): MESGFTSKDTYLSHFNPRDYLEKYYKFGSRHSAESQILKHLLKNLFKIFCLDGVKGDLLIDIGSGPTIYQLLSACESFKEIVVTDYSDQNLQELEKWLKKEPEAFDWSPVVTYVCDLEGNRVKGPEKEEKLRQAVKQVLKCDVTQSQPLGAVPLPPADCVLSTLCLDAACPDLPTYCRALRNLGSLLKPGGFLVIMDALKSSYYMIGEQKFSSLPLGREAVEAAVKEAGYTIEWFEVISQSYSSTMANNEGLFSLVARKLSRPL
Assay: Inhibition of NNMT in human 786-O cell lysate using d4-nicotinamide as substrate pretreated for 1 hr at 3 mins post 160 uM SAM addition followed by substrate addition measured after 15 to 30 mins by LC-MS analysis
pIC50: −log10 of the molar value.
READOUT TYPE: pIC50

Problem: Would you mind telling me what pIC50 value was observed for `CC(C)CCN(C(=O)CCl)c1cc(C(=O)NCc2cccc([N+](=O)[O-])c2)cc(C(F)(F)F)c1` ?
Result: < 4.00

====

Target: Nicotinamide N-methyltransferase (Homo sapiens)
Assay: Inhibition of NNMT in human 786-O cell lysate using d4-nicotinamide as substrate pretreated for 1 hr at 3 mins post 10 uM SAM addition followed by substrate addition measured after 15 to 30 mins by LC-MS analysis
READOUT TYPE: IC50 (µM)
Your answer should be a plain number; it is taken to be in µM.

Problem: Would you mind telling me what IC50 value was observed for `CC(C)CCN(C(=O)CCl)c1cc(C(=O)NCc2cccc([N+](=O)[O-])c2)cc(C(F)(F)F)c1` ?
Result: 4
